- Tested on: Tissue Factor Pathway Inhibitor (TFPI)
- Assay overview: IC50 ELISA | Mean IC50 [nM]

# Substance, Result unit, IC50
data = [
    ("Ac-FQSK-nma-NVHVDGYFERL-Aib-AKL-NH2 [JBT00002280]", "nM", 4.6),
]

----------
- Tested on: TFPI
- Assay overview: FXa Inhibition assay | EC50 (µM)
pEC50: −log10 of the molar value.
Recorded pEC50 by entry

# Substance, pEC50
measured = [
    ("Ac-FQSKGNVFVEGYFERLRAKL-NH2 (SEQ ID NO: 30) [JBT0475]", 6.60),
    ("Ac-FQSKGNVFVDGYFDRLRAKL-NH2 (SEQ ID NO: 31) [JBT0476]", 6.66),
    ("Ac-FQSKGNVFVHGYFERLRAKL-NH2 (SEQ ID NO: 28) [JBT0473]", 6.60),
    ("Ac-FQSKDNVFVTGYFERLRAKL-NH2 (SEQ ID NO: 33) [JBT0478]", 6.12),
    ("Ac-FQSKGNVFVNGYFERLRAKL-NH2 (SEQ ID NO: 27) [JBT0472]", 6.43),
]
